What viability was measured for each of the following?
- METHOD SUMMARY: SK-BR-3 cell growth inhibitors, pilot screen, 24 h, human (AID 572);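 also: compound exposure lasted between 18 and 24 h rather than exactly 24 h; 100% = carrier-treated control wells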
- EXPERIMENTAL SETUP: SK-BR-3 viability, CellTiter-Glo luminescence, at 10 µM, hits give low values
Numbers only, in %.

COc1cc(OC)cc(-c2nnc(SCC(=O)Nc3cc(C)on3)o2)c1    92.5
COc1ccc(-c2noc(-c3ccccc3C(=O)NCc3ccco3)n2)cc1    93
CCN(C(=O)Cc1c(C(=O)O)[nH]c2ccccc12)c1cc(OC)ccc1OC    112
Cc1cccc2cc(CN(CCCO)C(=O)Nc3ccc(Cl)cc3)c(=O)[nH]c12    74

For the next question, use this compound.
I would be grateful if you could share the reported viability for Cc1oc2c(CN3CCOCC3)c(O)ccc2c(=O)c1-c1ccc(Br)cc1 .
85
